- Assay remarks: Stability in human plasma (LC-MS, residual peptide)
- Assay type: in vitro ADME
- Condition details: 37 °C, 240 minutes, read-out: percentage of residual peptide relative to the peptide amount before reaction
- Procedure: The peptide was added to human plasma and diluted to a concentration of 5 µM, followed by incubation at 37 °C for 10, 60, and 240 minutes with stirring. The reaction mixture was collected and pretreated by plasma protein precipitation using methanol containing 0.1% formic acid. The resulting supernatants were collected and analyzed by LC-MS under the conditions shown in Table 1 below to determine the percentage of residual peptide relative to the initial peptide amount.
Readout label: remaining at 4 h, 5 µM (%)
Give bare numbers, in %.

Problem: # query: remaining at 4 h, 5 µM of entry Ac-EARPALLTSRLRFIPK-NH2 [GV2002]
Result: 46.5

Taken from patent EP4729530A1.
